Overview of reported pKd across a group of molecules:
Molecular target: Human recombinant FAP (Homo sapiens, UniProt Q12884)
Sequence (Q12884 whole entry): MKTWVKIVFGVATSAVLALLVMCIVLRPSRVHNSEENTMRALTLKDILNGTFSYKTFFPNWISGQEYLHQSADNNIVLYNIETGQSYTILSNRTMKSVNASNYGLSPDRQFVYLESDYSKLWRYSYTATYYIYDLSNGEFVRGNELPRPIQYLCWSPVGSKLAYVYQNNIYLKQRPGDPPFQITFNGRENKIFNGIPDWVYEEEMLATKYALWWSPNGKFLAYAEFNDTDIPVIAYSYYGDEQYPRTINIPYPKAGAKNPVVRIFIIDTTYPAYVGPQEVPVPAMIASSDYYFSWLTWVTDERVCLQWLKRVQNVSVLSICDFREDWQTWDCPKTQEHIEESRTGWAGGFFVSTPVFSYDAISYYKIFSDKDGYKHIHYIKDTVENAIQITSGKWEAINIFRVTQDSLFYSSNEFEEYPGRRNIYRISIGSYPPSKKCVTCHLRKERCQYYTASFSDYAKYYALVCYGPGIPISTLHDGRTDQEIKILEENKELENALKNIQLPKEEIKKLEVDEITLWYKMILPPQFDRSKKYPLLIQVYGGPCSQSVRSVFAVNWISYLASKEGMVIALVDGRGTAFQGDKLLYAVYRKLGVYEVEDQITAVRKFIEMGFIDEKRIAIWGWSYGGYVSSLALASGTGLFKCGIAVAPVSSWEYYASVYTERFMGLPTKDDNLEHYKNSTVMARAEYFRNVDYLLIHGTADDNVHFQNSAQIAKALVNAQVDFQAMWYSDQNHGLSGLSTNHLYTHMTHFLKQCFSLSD
Assay: Surface plasmon resonance (Biacore) assay
pKd: −log10 of the molar value. Numbered stars: 1 amine (or outer) side, 2 acyl side, 3 side chain; on linkers, the order of the positions; unused ones are H or OH. Bridge positions count the residues as written; N and C are the ends. Peptide text beside a SMILES is read from it. * marks the point of attachment. TBMB(SCH2CH2NH-DOTA) = O=C(O)CN1CCN(CC(=O)O)CCN(CC(=O)NCCSCc2cc(C[*:1])cc(C[*:2])c2)CCN(CC(=O)O)CC1; X4 = O=C1CN2CCN3CCN(CC(=O)N4CCN(Cc5cc(C[*:1])cc(C[*:2])c5)CC4)CCN(CC2)CC(=O)[O][In]([O]1)[O]C(=O)C3; Pentanesulfonyl = CCCCCS(=O)(=O)*; Hexanoyl = CCCCCC(=O)*
Measured Endpoint: pKd

1. CCCCCC(=O)N[C@H]1CSCc2cc(CSCCNC(=O)CN3CCN(CC(=O)O)CCN(CC(=O)O)CCN(CC(=O)O)CC3)cc(c2)CSC[C@@H](C(=O)O)NC(=O)[C@H](Cc2ccccc2)NC(=O)[C@H](CCC(N)=O)NC(=O)[C@H]([C@@H](C)O)NC(=O)[C@@H]2C[C@@H](O)CN2C(=O)[C@@H]2CCCN2C1 : > 8.00
2. CCCCCS(=O)(=O)N[C@H]1CSCc2cc(cc(CN3CCN(C(=O)CN4CCN5CCN6CCN(CC4)CC(=O)[O][In]([O]C(=O)C6)[O]C(=O)C5)CC3)c2)CSC[C@@H](C(=O)N[C@@H](CC(=O)O)C(N)=O)NC(=O)[C@H](Cc2ccccc2)NC(=O)[C@H](CCC(N)=O)NC(=O)[C@H]([C@@H](C)O)NC(=O)[C@@H]2CCCN2C(=O)[C@@H]2CCCN2C1=O [3BP-3717] (Pentanesulfonyl-CPPTQFCD-NH2; linker 1-7 via X4) : > 8.00
3. CCCCCC(=O)N[C@H]1CSCc2cc(CSCCNC(=O)CN3CCN(CC(=O)O)CCN(CC(=O)O)CCN(CC(=O)O)CC3)cc(c2)CSC[C@@H](C(=O)O)NC(=O)[C@H](Cc2ccccc2)NC(=O)[C@H](CCC(=O)O)NC(=O)[C@H]([C@@H](C)O)NC(=O)[C@@H]2CCCN2C(=O)[C@@H]2CCCN2C1=O [3BP-4250] (Hexanoyl-CPPTEFC-OH; linker 1-7 via TBMB(SCH2CH2NH-DOTA)) : > 8.00

src = patent US20220315554A1
